EXPERIMENT: in vivo
CONDITION PARAMETERS: dog, po
ASSAY READOUT: concentration at 7 days
Dear colleague, please send the value followed by its unit.

GET /value?item= CC(C)Cc1ccc(C(C)C(=O)O)cc1 (stereo not shown) &field=concentration at 7 days returns 8.5 ng/mL

====

EXPERIMENT: in vivo
CONDITION PARAMETERS: dog, in vivo, po
ASSAY READOUT: concentration at 7 days (ng/mL)
Answer format: numeric, ng/mL implied, no suffix.

response.value for CC(C)Cc1ccc(C(C)C(=O)O)cc1 (stereo not shown) (field: concentration at 7 days) = 8.5

====

EXPERIMENT: Naproxen quantification in canine sera (LC-MS/MS)
Type: in vivo, Beagle dogs
CONDITION PARAMETERS: both sexes, Beagle, dog, serum; oral, capsule PO once daily for seven days; 60 minutes post administration; mean+/−SEM
ASSAY READOUT: concentration at 60 min (µg/mL)
Just the number in µg/mL, nothing appended.

concentration at 60 min reported for this compound `COc1ccc2cc([C@H](C)C(=O)O)ccc2c1` : 102

====

EXPERIMENT: in vivo
CONDITION PARAMETERS: dog
ASSAY READOUT: concentration at 7 days (ng/mL)
Only the number, expressed in ng/mL, is required.

GET /value?item= CC(C)Cc1ccc(C(C)C(=O)O)cc1 (stereo not shown) &field=concentration at 7 days returns 58.5

====

EXPERIMENT: in vivo
CONDITION PARAMETERS: dog, in vivo
ASSAY READOUT: concentration at 7 days (ng/mL)
Quick reminder: number only, in ng/mL, skip the unit.

Short answer for CC(C)Cc1ccc(C(C)C(=O)O)cc1 (stereo not shown) [Ibuprofen] : concentration at 7 days was 58.5
